Data origin, for the record: patent US20150045540A1

- Tested Target: Hepatocyte Growth Factor (HGF), human (human, UniProt P14210 32-728)
- Sequence (P14210 32-728): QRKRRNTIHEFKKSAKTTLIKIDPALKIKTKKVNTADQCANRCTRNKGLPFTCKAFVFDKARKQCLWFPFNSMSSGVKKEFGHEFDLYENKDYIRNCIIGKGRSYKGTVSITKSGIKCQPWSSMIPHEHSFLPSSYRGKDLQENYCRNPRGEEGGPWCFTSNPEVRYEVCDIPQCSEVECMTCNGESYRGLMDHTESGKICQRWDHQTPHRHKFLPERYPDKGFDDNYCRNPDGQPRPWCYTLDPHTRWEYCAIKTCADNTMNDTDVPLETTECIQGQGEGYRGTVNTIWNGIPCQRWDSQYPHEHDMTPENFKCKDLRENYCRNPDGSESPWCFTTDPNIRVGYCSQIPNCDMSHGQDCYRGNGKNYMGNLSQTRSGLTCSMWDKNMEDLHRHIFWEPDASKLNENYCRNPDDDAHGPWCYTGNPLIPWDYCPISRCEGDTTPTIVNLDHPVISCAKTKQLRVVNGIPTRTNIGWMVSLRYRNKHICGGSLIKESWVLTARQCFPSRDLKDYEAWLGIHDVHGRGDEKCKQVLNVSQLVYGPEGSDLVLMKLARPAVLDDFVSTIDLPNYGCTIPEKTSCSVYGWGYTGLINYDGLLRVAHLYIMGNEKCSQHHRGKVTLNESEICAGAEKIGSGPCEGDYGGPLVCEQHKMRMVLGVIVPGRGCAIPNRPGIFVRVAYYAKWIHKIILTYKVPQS
- Procedure Summary: ELISA
Property Measured: pEC50
Keep in mind that pEC50 stands for -log10 of concentration in molar terms.

Query: Given HC 2/SLC 4 (antibody) chain 1: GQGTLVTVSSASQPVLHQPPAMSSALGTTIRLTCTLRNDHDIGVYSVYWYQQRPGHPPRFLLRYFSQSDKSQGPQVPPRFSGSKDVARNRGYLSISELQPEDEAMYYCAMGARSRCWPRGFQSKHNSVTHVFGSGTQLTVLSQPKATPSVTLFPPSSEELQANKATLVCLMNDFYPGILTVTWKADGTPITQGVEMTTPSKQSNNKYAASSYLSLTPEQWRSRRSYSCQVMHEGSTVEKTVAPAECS chain 2: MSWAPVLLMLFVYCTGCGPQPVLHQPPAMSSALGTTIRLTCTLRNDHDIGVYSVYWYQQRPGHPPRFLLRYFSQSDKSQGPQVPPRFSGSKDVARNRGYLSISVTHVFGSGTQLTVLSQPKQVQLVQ , respond with its pEC50.
Reply: 10.24
